# Test system: SK-MEL-2 melanoma
# ASSAY METHOD TEXT: NCI-60 one-dose screen, 48 h
# PROTOCOL CONDITIONS: 10 µM
About 83,000 compounds went through this panel and 20% of them were active in at least one assay; those are over-represented in the sample as a whole. The source made the active and inactive calls. Rule for the calls: active = growth percent below 10; inactive = the rest.
In this exercise, the only acceptable responses are true (active), false (inactive)

COc1cc2c3cc1Oc1c(OC)c(OC)cc4c1C(Cc1ccc(O)c(c1)Oc1ccc(cc1)CC3N(C)CC2)N(C)CC4 (stereo not drawn)	true
COS(=O)(=O)c1ccc(Br)cc1	false
O=C(Nc1ccccc1C(=O)NCC1CC1)c1cccs1	false
COc1ccc(NC(=O)CCl)cc1	false
CCC(C)(O)c1ccc(C)cc1 (stereo not drawn)	false
O=C(Cc1ccccc1)Cc1ccccc1	false
COc1cc2cc(OC(C)=O)c3cc4c(cc3c2c(OC)c1OC)OCO4	false

# ---- query compound ----
Please state the recorded outcome for this compound: CCOC(=O)C(=O)C=P(c1ccccc1)(c1ccccc1)c1ccccc1
false

* * *

# Test system: SN12C renal
# ASSAY METHOD TEXT: NCI-60 one-dose screen, 48 h
# PROTOCOL CONDITIONS: 10 µM
# Procedure: Growth inhibition of the SN12C human tumor cell line is measured as a screen for anti-cancer activity. Cells are grown in 96 well plates and exposed to the test compound for 48 hours. Compounds are tested at a single concentration, which is 10^-5 M for most compounds. The reported endpoint is percent growth (GI% or GIPRCNT), where numbers from 0 - 100% represent growth inhibition, and numbers from -100% - 0 represent cell death. For example, a value of 40 represents 60% growth inhibition. […]
This is part of a sample that, as a whole, favours compounds with a hit. Of some 83,000 tested, about 20% had one in any assay. The source made the active and inactive calls. The calls were made as follows: active = growth percent below 10; inactive = the rest.
In this exercise, the only acceptable responses are active, inactive

A selection of reference data follows.
CCOC(=O)CCCC(=O)OCC	inactive
CC(=O)C1CCCCC1	inactive
c1ccc(Sc2ccccc2)cc1	inactive
C1CNC(C2=NCCN2)=N1	inactive
Oc1ccccc1O	inactive
COc1cc2nc3cc([N+](=O)[O-])ccc3c(Cl)c2cc1OC	inactive
Cc1nc2ccccc2c(C(=O)O)c1O	inactive
Cc1cc(C)cc(NCCC#N)c1	inactive
CC1(C)S(=O)(=O)OCCOS1(=O)=O	inactive
O=[N+]([O-])c1ccc(N=Nc2ccccc2)cc1	inactive

Please state the recorded outcome for this compound: NC(C(=O)O)c1ccc([N+](=O)[O-])cc1 (stereo not drawn)
inactive

Please state the recorded outcome for this compound: O=C(Nc1cc(-c2ccccc2)[nH]n1)c1ccc(Cl)cc1
inactive

Please state the recorded outcome for this compound: c1ncc2[nH]cnc2n1
inactive

Please state the recorded outcome for this compound: CCOC(=O)c1coc(C(=O)OCC)c1C(=O)OCC
inactive

Please state the recorded outcome for this compound: COS(=O)(=O)c1ccc(Br)cc1
inactive

* * *

# Test system: NCI/ADR-RES ovarian
# ASSAY METHOD TEXT: NCI-60 one-dose screen, 48 h (100 = growth as untreated, 0 = no growth, -100 = all killed)
# PROTOCOL CONDITIONS: 10 µM
About 83,000 compounds went through this panel and 20% of them were active in at least one assay; those are over-represented in the sample as a whole.
MEASUREMENT NAME: growth (%)
Write it as a number; the unit % goes unstated.

// known answers, use as guide
CCO/C=C1\SC(=S)N(c2cccc(C)c2)C1=O	109
CCOC(=O)/C(C#N)=C/c1cccc(C)c1	97.3
N#CCCc1ccc(O)cc1	116
CC(C)(C)n1nc(C2CC2)c(Br)c1NC(=O)c1ccccc1F	103
CC(C)OC(=O)c1cc(NC(=S)OC(C)C)ccc1Cl	25.8

Value wanted: growth (NCI/ADR-RES ovarian) of entry CC1(C)/C(=C\CO)C2CCC1C2 (stereo not drawn)
105

Value wanted: growth (NCI/ADR-RES ovarian) of entry COC(=O)c1ccc(NC(=O)CCl)cc1
97.1

Value wanted: growth (NCI/ADR-RES ovarian) of entry Cc1cc(C(C)(C)C)cc(C)c1Br
111

Value wanted: growth (NCI/ADR-RES ovarian) of entry O=[N+]([O-])c1ccc(S(=O)(=O)NN=C2CCCCC2)cc1
115

Value wanted: growth (NCI/ADR-RES ovarian) of entry C=CCNc1ccccc1
114

Value wanted: growth (NCI/ADR-RES ovarian) of entry O=[N+]([O-])c1ccc(Cl)c(S(=O)(=O)O)c1
108

Value wanted: growth (NCI/ADR-RES ovarian) of entry COCCCC/C(=N\OCCN)c1ccc(C(F)(F)F)cc1
102

Value wanted: growth (NCI/ADR-RES ovarian) of entry O/N=C/c1ccc(O)cc1O
104

Value wanted: growth (NCI/ADR-RES ovarian) of entry CC(C)=NNc1ccc([N+](=O)[O-])cc1[N+](=O)[O-]
93.4

Value wanted: growth (NCI/ADR-RES ovarian) of entry COc1cccc(Sc2ccc([N+](=O)[O-])c3no[n+]([O-])c23)c1
42.5

Value wanted: growth (NCI/ADR-RES ovarian) of entry CN(C)c1ccc(C(c2ccc(O)cc2)c2ccc(N(C)C)cc2)cc1
93.9

Value wanted: growth (NCI/ADR-RES ovarian) of entry CCN(CC)CCCC(C)Nc1ccnc(/C=C/c2ccc(Cl)cc2)c1 (stereo not drawn)
56.1

Value wanted: growth (NCI/ADR-RES ovarian) of entry C/C(O)=C(\C=N\C(N)=S)C(=O)Nc1ccccc1
110

* * *

# Tested on: T-47D breast
# ASSAY METHOD TEXT: NCI-60 one-dose screen, 48 h (100 = growth as untreated, 0 = no growth, -100 = all killed)
# PROTOCOL CONDITIONS: 10 µM
Compounds without any hit were thinned out: in the full panel of roughly 83,000, 20% have a hit.
MEASUREMENT NAME: growth (%)
Write it as a number; the unit % goes unstated.

O=C(O)CCCCNC(=O)c1ccccc1	88.2
CC(O)COc1ccc(-c2ccccc2)cc1 (centres undefined)	94

Which growth reading was recorded for the molecule COc1ncnc2c1cnn2C ?
97.1

Which growth reading was recorded for the molecule Cc1c(C(=O)O)c(=O)n(-c2ccccc2)n1C ?
98.8

Which growth reading was recorded for the molecule CCOc1ccc2[nH]c(=S)sc2c1 ?
94.5

Which growth reading was recorded for the molecule COC(=O)Nc1nc2ccc(C(=O)c3cccs3)cc2[nH]1 ?
91.1

Which growth reading was recorded for the molecule CCOc1ccccc1/C=N/Nc1nc2ccccc2o1 ?
23.4

* * *

# System: HCC-2998 colon
# ASSAY METHOD TEXT: NCI-60 one-dose screen, 48 h (100 = growth as untreated, 0 = no growth, -100 = all killed)
# PROTOCOL CONDITIONS: 10 µM
Compounds without any hit were thinned out: in the full panel of roughly 83,000, 20% have a hit.
Reported growth values for a set of compounds
Write it as a number; the unit % goes unstated.

// known answers, use as guide
O=[N+]([O-])c1ccc(-c2noc(-c3cccs3)n2)cc1	99.9
CC1(C)OC(=O)C(c2ccsc2)C(=O)O1	107
NC(=O)N/N=C\c1ccco1	99.3
OC1OC(COC(c2ccccc2)(c2ccccc2)c2ccccc2)C(O)C(O)C1O (stereo not given)	110

Query compound follows.
Which growth reading was recorded for the compound CC1(O)OC(COc2ccc(Cl)cc2)COC1O (stereo not given) ?
109

* * *

# Tested on: A498 renal
# ASSAY METHOD TEXT: NCI-60 one-dose screen, 48 h (100 = growth as untreated, 0 = no growth, -100 = all killed)
# PROTOCOL CONDITIONS: 10 µM
About 83,000 compounds went through this panel and 20% of them were active in at least one assay; those are over-represented in the sample as a whole. Calls of active or inactive are those of the source. The calls were made as follows: active = growth percent below 10; inactive = the rest.
MEASUREMENT NAME: growth

// known answers, use as guide
O=[N+]([O-])c1ccc(S(=O)(=O)NN=C2CCCCC2)cc1	123% (inactive)
Clc1ccc(-c2n[nH]c3c2Cc2ccccc2-3)cc1Cl	110% (inactive)
Oc1ccccc1O	87.9% (inactive)
N#CCc1ccc([N+](=O)[O-])cc1	90.7% (inactive)
CCCCOC(OCCCC)c1ccccc1	84.7% (inactive)

Which growth reading was recorded for the molecule CCN(CC)CCNc1ccc(CO)c2sc3ccccc3c(=O)c12 ?
-17.9% (active)

Which growth reading was recorded for the molecule CC(=O)c1sc2c(c1OC(=O)c1ccc(Cl)cc1Cl)c(=O)n(-c1ccccc1)c(=S)n2-c1ccccc1 ?
-41.9% (active)

* * *

# Test system: HCT-15 colon
# ASSAY METHOD TEXT: NCI-60 one-dose screen, 48 h
# PROTOCOL CONDITIONS: 10 µM
About 83,000 compounds went through this panel and 20% of them were active in at least one assay; those are over-represented in the sample as a whole. Activity calls are given as the source filed them. Rule for the calls: active = growth percent below 10; inactive = the rest.
In this exercise, the only acceptable responses are active, inactive

O=C(O)/C=C/c1ccc2c(c1)CCC2	inactive
CCCOC(=O)C(O)c1ccccc1 (stereo not given)	inactive
O=C(Cc1ccc(OCc2ccccc2)cc1)NCc1ccc2c(c1)OCO2	inactive
CC(C)=NNC(N)=S	inactive
CCCNC(=O)c1ccc(S(N)(=O)=O)cc1	inactive
c1ccc(Cc2ccccc2)cc1	inactive
Cc1cc(N)ccc1-c1ccc(N)cc1C	inactive
Cc1ccc(C(=O)NC2c3ccccc3Oc3ccccc32)cc1	inactive

Please state the recorded outcome for this molecule: O=S(=O)(O)c1ccc(Cl)c(Cl)c1
inactive

Please state the recorded outcome for this molecule: O=C1OC(=O)C2C1C1(Cl)C(Cl)=C(Cl)C2(Cl)C2C(=O)OC(=O)C21 (stereo not given)
inactive

Please state the recorded outcome for this molecule: CC1=CC(=O)c2ccccc2C1=O
inactive

Please state the recorded outcome for this molecule: O=C(CN1CCNCC1)N1CCOCC1
inactive

Please state the recorded outcome for this molecule: O=[N+]([O-])c1ccc(O)c(S(=O)(=O)O)c1
inactive

Please state the recorded outcome for this molecule: COC(=O)c1ccc(C(C)C)cc1
inactive

Please state the recorded outcome for this molecule: C/C(O)=C(\C=N\C(N)=S)C(=O)Nc1ccccc1
inactive

Please state the recorded outcome for this molecule: CCCCCCCCOC(=O)c1ccccn1
inactive

Please state the recorded outcome for this molecule: Brc1cnc2ccccc2c1
inactive

Please state the recorded outcome for this molecule: CC(=O)c1sc2c(c1OC(=O)c1ccc(Cl)cc1Cl)c(=O)n(-c1ccccc1)c(=S)n2-c1ccccc1
active

Please state the recorded outcome for this molecule: CCOC(=O)/C(C#N)=C/c1cccc(C)c1
inactive

Please state the recorded outcome for this molecule: CCNCCCCNCCCCNCCCCNCCCCNCC
inactive
